Where do the numbers come from? From a melting point compilation (Tetko et al.; mined from patent text by program, amines drawn as free bases though some values may be those of a salt).

EXPERIMENTAL_ENDPOINT: melting point

Check out these entries, answers already filled in.
Reported melting point ( COc1nc(C(Cl)(Cl)Cl)c(Cl)c(OC)c1Cl ) = 67 to 69 °C

The molecule CN1Cc2c(-c3noc(CN4CCCC4)n3)ncn2-c2ccc(F)cc2C1=O showed melting point equal to 158 to 160 °C

Continuing:
GET /value?item= O=C(Nc1ccccc1NS(=O)(=O)c1ccc(Cl)cc1)c1ccccc1 &field=melting point returns 191 to 192 °C

Form: molecule = O=Cc1ccc(-c2ccc(-c3ccc(C=O)o3)nc2)cc1 ; melting point = 217 to 219 °C

CCC1(c2cn(Cc3ccc(Cl)cc3)cn2)Cc2ccccc2C1=O (stereo unspecified) has a reported melting point of 150 to 154 °C

Recorded result, COC(=O)c1c(O)c2cc(OCc3ccccc3)ccc2c(=O)n1CC(C)C , melting point: 109 to 110 °C

Kindly note the recorded melting point for COC(=O)c1cscc1NC(=O)C(F)Cl (stereo unspecified) , which is 51 to 54 °C

Input Cc1nc2sccn2c(=O)c1O . Output melting point: 225 to 227 °C

Entry FC(F)(F)C(F)(F)C(F)(F)c1nc(-c2ccc(OCCCn3ccnc3)cc2)no1 ; melting point = 60 to 60.5 °C

For CCOC(=O)c1ccc(-c2cccc(CN)n2)cc1 the molecule record lists melting point as 141 to 143 °C

// sample COc1cc(OC)nc(Oc2cccc3c2C(=O)OC3OC(C)=O)n1 (stereo unspecified) , its melting point was 119 to 120 °C

So for COc1ccc(C2(C(C)(C)O)CCN(C)CC2)cc1 , the logged melting point turned out to be 114 to 115 °C

Lab note: O=C(O)CCc1ccc(Oc2ccc3c(c2)S(=O)(=O)NC2CCCN32)cc1 (stereo unspecified) gave melting point of 178 to 183 °C

What the record says about Fc1ccc(F)c(CC2CCN([C@H]3CC[C@H](c4ccc5c(c4)OCO5)CC3)CC2)c1 : melting point is 96 to 97 °C

response.value for CC1(C)c2cc(O)ccc2OC1CO (stereo unspecified) (field: melting point) = 79 to 80 °C

Record C=CCC1(CC)C(=O)NC(=O)NC1=O . Reported melting point: 157 to 159 °C

Recorded result, CC(C)(NSc1nc2ccccc2s1)c1ccccc1 , melting point: 88 to 90 °C

Data point: NC(=O)NCNC(N)=O ; melting point = > 270 °C

The recorded melting point for entry CC(Oc1ccc([N+](=O)[O-])cc1)c1c(F)ccc(F)c1F (stereo unspecified) equals 120 °C

For COc1ccc(OC(C)=O)cc1[N+](=O)[O-] the molecule record lists melting point as 93 to 97 °C

So for CCOC(=O)c1cc(N)nn1C , the logged melting point turned out to be 57 to 58 °C
